Reference source: the supplement of paper PMC13380429

system: Vero E6; test: cell viability relative to DMSO; higher = less toxic; conditions: 72 h; 1 nM
MEASUREMENT_NAME: cell viability (%)

1) NCCCCCc1c[nH]cn1 [impentamine] : 96.6
2) CCOC(=O)CNC(=O)[C@@H]1CCCN1C(=O)Cc1ccccc1 [DVD-111] : 103
3) CCN(CC)C(=S)SSC(=S)N(CC)CC [disulfiram] : 108
4) C=CCc1cccc(/C=N/NC(=O)CN2CCN(Cc3ccccc3)CC2)c1O [PAC-1] : 103
5) C[C@@H](N)[C@H]1CC[C@H](C(=O)Nc2ccncc2)CC1 : 97.8
6) CCn1c2ccccc2c2cc(Nc3ccnc(NCCCN4CCOCC4)n3)ccc21 [EHop-016] : 102

----------
test system: Calu-3; experiment: cell viability relative to DMSO; higher = less toxic; details: 72 h; 10 nM
MEASUREMENT_NAME: cell viability (%)

1. CN1CCC(Nc2ncc3ncnc(Nc4ccc(F)c(Cl)c4)c3n2)CC1 [BIBX-1382] : 115
2. CC1=C(CC(=O)O)c2cc(F)ccc2/C1=C\c1ccc(S(C)(=O)=O)cc1 [exisulind] : 102
3. Cc1nc(C)c(C)nc1C [chuanxiongzine] : 106
4. CN1CCC(=C2c3ccccc3CCn3c(C=O)cnc32)CC1 [alcaftadine] : 99.5
5. CCCOc1ccc(Br)cc1-c1cc(-c2ccc(Cl)cc2)[nH]c1-c1ccncc1 : 96.3
6. CCc1c2c(nc3ccc(O)cc13)-c1cc3c(c(=O)n1C2)COC(=O)[C@]3(O)CC [SN-38] : 85.9
7. O=C(O)CCC(=O)Nc1ccc(S(=O)(=O)Nc2nccs2)cc1 [succinylsulfathiazole] : 96.2
8. CC(=O)OCC1=C(C(=O)O)N2C(=O)[C@@H](NC(=O)CSc3ccncc3)[C@H]2SC1 [cephapirin] : 92.3
9. COc1cc2c(cc1OC)C(c1ccc(N)cc1)=NNC(=O)C2 [CFM-2] : 100
10. C=C1CC[C@H](O)C/C1=C/C=C1\CCC[C@]2(C)[C@@H]([C@H](C)CCCC(C)(C)O)CC[C@@H]12 [calcifediol] : 91.4
11. C[C@]1(COc2ccc(N3CCC(Oc4ccc(OC(F)(F)F)cc4)CC3)cc2)Cn2cc([N+](=O)[O-])nc2O1 [delamanid] : 98
12. Cc1ccc(S(=O)(=O)Nc2nc3ccccc3nc2Nc2ccc3nsnc3c2)cc1 [XL147] : 113
13. Clc1ccc(C2=CCC[C@H]3CC[C@@H]2N3)cn1 [UB-165] : 107
14. Nc1nc(=O)n([C@@H]2CS[C@H](CO)O2)cc1F [emtricitabine] : 88.8
15. Cc1ccc(F)cc1C(=O)Nc1ccc(C(=O)N2Cc3cccn3Cc3ccccc32)c(Cl)c1 [lixivaptan] : 98.6
16. O=C(O)c1cnn(-c2nc3cc(OC(F)(F)F)c(Cl)cc3[nH]2)c1 : 106
17. CC(C)C[C@H](NC(=O)CNC(=O)c1cc(Cl)ccc1Cl)B(O)O [ixazomib] : 99
18. CCCCCCCCCCCCCCCC[n+]1ccn(Cc2ccccc2)c1C [NH125] : 99.1
19. CCOCCn1c(C2CCN(CCc3ccc(C(C)(C)C(=O)O)cc3)CC2)nc2ccccc21 [bilastine] : 106
20. CC(=O)OCC(=O)[C@@]12OC3(CCCC3)O[C@@H]1C[C@H]1[C@@H]3CCC4=CC(=O)C=C[C@]4(C)[C@@]3(F)[C@@H](O)C[C@@]12C [amcinonide] : 103
21. C[C@H](NC(=O)[C@@H](Cc1c[nH]c2ccccc12)NC(=O)[C@@H](N)Cc1c[nH]cn1)C(=O)N[C@@H](Cc1c[nH]c2ccccc12)C(=O)N[C@H](Cc1ccccc1)C(=O)N[C@@H](CCCCN)C(N)=O : 109
22. COCCN1CCN(Cc2ccc(-c3n[nH]c4c3C(=O)c3c(NC(=O)NN5CCOCC5)cccc3-4)cc2)CC1 : 109
23. CCCN(C/C=C/I)C1CCc2cccc(O)c2C1 (centres undefined) [8-hydroxy-PIPAT] : 101
24. O=C(Nc1cc(Cl)cc(Cl)c1O)c1c(O)c(Cl)cc(Cl)c1Cl [oxyclozanide] : 90.4
25. C=C(C)[C@@H]1CC[C@]2(C(=O)O)CC[C@]3(C)[C@H](CC[C@@H]4[C@@]5(C)CC[C@H](OC(=O)CC(C)(C)C(=O)O)C(C)(C)[C@@H]5CC[C@]43C)[C@@H]12 [bevirimat-dimeglumine] : 103
26. Cc1ccc(CC2(O)CCN(CCOc3ccc(O)cc3)CC2)cc1 : 96.5
27. O=C(O)/C=C1\CCCc2ccccc2[C@H]1O (racemic) [NCS-382] : 95.3
28. O=C(c1ccc(-c2ccc(Cl)cc2)o1)N(Cc1ccccn1)c1ccc(N2CCNCC2)cc1 [MK2-IN-1] : 112
29. OC(c1ccc(-c2ccc(CN3CCN(Cc4ccncc4)CC3)cc2)c(F)c1)(C(F)(F)F)C(F)(F)F [SR-2211] : 101
30. CCCC(C(=O)OCCN(CC)CC)(c1ccccc1)c1ccccc1 [proadifen] : 93.1
31. CC(C)c1ccc(NC(=O)Cn2cnc3c2c(=O)n(C)c(=O)n3C)cc1 : 81.2
32. O=C(NC1CCN(CCCCC2(C(=O)NCC(F)(F)F)c3ccccc3-c3ccccc32)CC1)c1ccccc1-c1ccc(C(F)(F)F)cc1 [lomitapide] : 100
33. Cc1ccc(/C(=C\CN2CCCC2)c2cccc(/C=C/C(=O)O)n2)cc1 [acrivastine] : 98.1
34. COc1cc(-n2c(=S)[nH]c3ccccc3c2=O)c(Cl)cc1Cl [mdivi-1] : 97.8

----------
system: HepG2; test: cell viability relative to DMSO; higher = less toxic; conditions: 72 h; 1 nM
MEASUREMENT_NAME: cell viability (%)

1. CCOc1cc2ncc(C#N)c(Nc3ccc(F)c(Cl)c3)c2cc1NC(=O)/C=C/CN(C)C : 107
2. CN1CCN(c2nc(C3=C(c4c[nH]c5ccccc45)C(=O)NC3=O)c3ccccc3n2)CC1 : 108
3. COc1ccc(CN2CCN(C(c3ccc(F)cc3)c3ccc(F)cc3)CC2)c(OC)c1OC : 110
4. O=C(O)C1=CO[C@@H](O[C@@H]2O[C@H](CO)[C@@H](O)[C@H](O)[C@H]2O)[C@@H]2C(CO)=CC[C@H]12 : 110
5. O=[N+]([O-])c1ncc[nH]1 : 104
6. O=C(O)c1cnn(-c2nc3cc(OC(F)(F)F)c(Cl)cc3[nH]2)c1 : 93.8
7. CCCN(C/C=C/I)C1CCc2cccc(O)c2C1 (stereo not drawn) [8-hydroxy-PIPAT] : 101
8. Nc1c(CC(=O)O)cccc1C(=O)c1ccccc1 : 103

----------
test system: A549-ACE2 infected with SARS-CoV-2; test: SARS-CoV-2 infection rate relative to DMSO; higher = more infection; conditions: 3 µM; 24 h
Record 1 (yes) whenever SARS-CoV-2 infection rate is at 30% or higher; record 0 (no) when lower.

1) C=CC(=O)Nc1cccc(C)c1Nc1ncc2cc(-c3c(Cl)c(OC)cc(OC)c3Cl)ccc2n1 : 1 (yes)
2) O=C1/C(=C/c2ccccc2)C[C@@]2(O)[C@H]3Cc4ccc(O)c5c4[C@@]2(CCN3CC2CC2)[C@H]1O5 : 0 (no)
3) CCn1c2ccccc2c2cc(Nc3ccnc(NCCCN4CCOCC4)n3)ccc21 : 0 (no)
4) CCCCCCCCCCC(O)C1C=CC2C(=O)N(c3ccccc3)C(=O)C2N1Nc1ccc([N+](=O)[O-])cc1 (stereo unspecified) : 1 (yes)
5) CCN1CCN(Cc2ccc(C(=O)Nc3ccc(C)c(Oc4ccc5c(c4)CC(=O)N5)c3)cc2C(F)(F)F)CC1 : 0 (no)
6) O=C(c1ccc(-c2ccc(Cl)cc2)o1)N(Cc1ccccn1)c1ccc(N2CCNCC2)cc1 : 0 (no)

----------
Attribute: drug sensitivity score
tested on: Calu-3; test: drug sensitivity score (DSS) for viability; higher = more toxic; extreme values may be limits of the assay; conditions: 72 h
MEASUREMENT_NAME: drug sensitivity score

1) CCC(=O)OCN1C(=O)C=CC1=O : 0
2) NCC(CC(=O)O)c1ccc(Cl)cc1 (centres undefined) : 0
3) CCC(=O)O[C@@H]1CC(=O)O[C@H](C)C/C=C/C=C/[C@H](OC(C)=O)[C@H](C)C[C@H](CC=O)[C@H](O[C@@H]2O[C@H](C)[C@@H](O[C@H]3C[C@@](C)(OC(C)=O)[C@@H](OC(=O)CC)[C@H](C)O3)[C@H](N(C)C)[C@H]2O)[C@H]1OC : 0.9
4) CNC(=O)c1cccc2cc(Oc3ccnc4cc(OCC5(N)CC5)c(OC)cc34)ccc12 : 0

----------
test system: HepG2; assay: cell viability relative to DMSO; higher = less toxic; conditions: 72 h; 1 nM
Attribute: cell viability
MEASUREMENT_NAME: cell viability (%)

1. NC(=O)c1[nH]cnc1O [SM-108] : 95
2. COc1cc2c(Oc3ccc(NC(=O)C4(C(=O)Nc5ccc(F)cc5)CC4)cc3F)ccnc2cc1OCCCN1CCOCC1 [foretinib] : 94.7
3. CN(C)CCOC(c1ccccc1)c1ccccc1 [diphenhydramine] : 97.8
4. COc1cc(C(=O)N2CCC(N3CCN(C)CC3)CC2)ccc1Nc1ncc2c(n1)N(C)c1ccccc1C(=O)N2C [LRRK2-IN-1] : 99.4
5. CN(C)/C=N/c1c(I)cc(I)c(CCC(=O)O)c1I [iopodic-acid] : 98.8
6. COc1ccccc1Oc1c(NS(=O)(=O)c2ccc(C)cn2)nc(-c2ccncc2)nc1OC [SPP301] : 106
7. O=C(O)C(F)(F)C(F)(F)C(F)(F)C(F)(F)C(F)(F)C(F)(F)C(F)(F)F [ammonium-perfluorocaprylate] : 113
8. Cc1ccc(S(=O)(=O)Nc2nc3ccccc3nc2Nc2ccc3nsnc3c2)cc1 [XL147] : 107
9. Clc1ccc(C2=CCC[C@H]3CC[C@@H]2N3)cn1 [UB-165] : 98.2
